B1: glmS ribozyme (parent)
chain: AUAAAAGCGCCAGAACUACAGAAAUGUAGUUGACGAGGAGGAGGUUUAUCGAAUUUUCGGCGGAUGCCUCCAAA

variants of: B1; assay: kcat; higher = faster cleavage; RNA array; settings: with glucosamine-6-phosphate
This sample holds only a part of the variants without activity.
kcat values by entry

Here's what some known entries look like.
>>> assay_result("G41A U54C")
"0.000448 s⁻¹"
>>> assay_result("U55G C58G")
"0.000161 s⁻¹"
>>> assay_result("U30G G41U")
"0.000172 s⁻¹"
>>> assay_result("C61G C71U")
"< 1e-05 s⁻¹"
>>> assay_result("A52G U54G")
"0.00117 s⁻¹"

Lab note: measured kcat of A33C G66A was 0.000291 s⁻¹

Lab note: measured kcat of G40U C58A was 0.000609 s⁻¹

Lab note: measured kcat of G41A G66C was 3.76e-05 s⁻¹

Lab note: measured kcat of A52G C67A was 0.000584 s⁻¹

Lab note: measured kcat of C11G A14U C70A was 3.61e-05 s⁻¹

Lab note: measured kcat of A48U C70A was 1.64e-05 s⁻¹

Lab note: measured kcat of C16A A42C was < 1e-05 s⁻¹

Lab note: measured kcat of A64C U65A was 2.96e-05 s⁻¹

Lab note: measured kcat of G40C A52G was 0.00018 s⁻¹

Lab note: measured kcat of A12C G60C was < 1e-05 s⁻¹

Lab note: measured kcat of G7U C10U G37A C67A was 3.55e-05 s⁻¹

Lab note: measured kcat of A12C G29C was 0.00327 s⁻¹
